targetOrTestSystem: mouse CB2 receptors (Mus musculus, UniProt P47936)
Construct: expressed in transfected cells
Sequence (P47936 whole entry): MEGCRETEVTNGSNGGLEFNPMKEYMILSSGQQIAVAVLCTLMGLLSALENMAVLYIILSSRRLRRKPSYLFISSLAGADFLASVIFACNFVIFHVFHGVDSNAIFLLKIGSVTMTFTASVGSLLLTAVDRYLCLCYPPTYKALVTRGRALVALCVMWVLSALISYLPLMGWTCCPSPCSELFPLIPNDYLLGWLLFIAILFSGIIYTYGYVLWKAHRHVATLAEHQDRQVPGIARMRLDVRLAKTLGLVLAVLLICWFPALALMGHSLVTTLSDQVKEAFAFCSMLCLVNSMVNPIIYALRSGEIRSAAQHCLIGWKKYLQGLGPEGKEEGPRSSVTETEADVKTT
assayDetails: Forskolin-stimulated cAMP accumulation (cyclase), HEK mCB2
Assay type: cell-based
pEC50: −log10 of the molar value.
testReadout: pEC50

compound="CCCCCCC(C)(C)c1ccc([C@@H]2C[C@H](O)CC[C@H]2CCCO)c(O)c1 (relative stereo) [CP55940, reference compound]" targetortestsystem="mouse CB2 receptors (Mus musculus, UniProt P47936)" result=8.18

* * *

targetOrTestSystem: mouse CB2 receptors (Mus musculus, UniProt P47936)
Construct: expressed in transfected cells
assayDetails: On-cell western for receptor internalization, HEK mCB2
Assay type: cell-based
testReadout: EC50

molecule="CCCCCCC(C)(C)c1ccc([C@@H]2C[C@H](O)CC[C@H]2CCCO)c(O)c1 (relative stereo) [CP55940, reference compound]" testreadout=EC50 result="7.4 nM"

* * *

targetOrTestSystem: mouse CB2 receptors (Mus musculus)
Construct: expressed in transfected cells
assayDetails: Forskolin-stimulated cAMP accumulation (cyclase), HEK mCB2
Format: cell-based
experimentalContext: mouse CB2, 30 mins incubation; read-out: Cyclase EC50
testReadout: EC50 (nM)

compound=Cc1nc(N2CCN(C)CC2)c2nc(-c3ccccc3Cl)n(C3CCOCC3)c2n1 unitsymbol=nM result=13.6

* * *

targetOrTestSystem: mouse CB2 receptors (Mus musculus, UniProt P47936)
Construct: expressed in transfected cells
assayDetails: Phosphorylated ERK1/2 detection, HEK mCB2
Format: cell-based
experimentalContext: pERK1/2 EC50, mouse CB2, 20 mins incubation
pEC50: −log10 of the molar value.
testReadout: pEC50

molecule="CCCCCCC(C)(C)c1ccc([C@@H]2C[C@H](O)CC[C@H]2CCCO)c(O)c1 (relative stereo) [CP55940, reference compound]" testreadout=pEC50 result=8.82
